As shown below, each of these compounds has a reported Recovery ratio with respect to Hb concentration after 0 days value.
# Tested on: hemoglobin-haptoglobin complex
# protocol.text: Stability of hemoglobin (as hemoglobin-haptoglobin complex) in samples preserved at 37° C. in preservation solution containing 1 unit/L haptoglobin, Hb measured by latex agglutination method (Examples 1 to 7)
# Set-up: species or system human
# details: Feces 3; sugar 50 mmol/L + phenylboronic acid 15 mmol/L; 37° C., 14 days
Respond numerically; units are % and should not be typed.

Recorded results for 4 compounds are shown here.
1. OC[C@@H](O)[C@@H](O)[C@H](O)[C@H](O)CO
81
2. OC[C@@H](O)[C@@H](O)[C@H](O)[C@@H](O)CO
83
3. OC[C@H]1O[C@@](CO)(O[C@H]2O[C@H](CO)[C@@H](O)[C@H](O)[C@H]2O)[C@@H](O)[C@@H]1O
73
4. OC[C@H]1O[C@H](O[C@H]2O[C@H](CO)[C@@H](O)[C@H](O)[C@H]2O)[C@H](O)[C@@H](O)[C@@H]1O
70

Then there is this compound:
Need Recovery ratio with respect to Hb concentration after 0 days, item O=C(CO)[C@@H](O)[C@H](O)[C@H](O)CO
80
